- target_or_test_system: Microphthalmia-associated transcription factor (Homo sapiens)
- assay_procedure: MITF inhibitors, primary screen, biochemical, AlphaScreen, human (AID 1259374);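 note: 0% = vehicle wells with protein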
- condition_notes: AlphaScreen MITF homodimerization, bead proximity signal; at 2.6 µM; active compounds read high
Among all 650,000 compounds or so, about 5,900 (0.91%) were called active. The sample as a whole holds a higher share of actives than the screen did.
Decide using inhibition: a value greater than or equal to 20% is TRUE, a smaller one is FALSE.

Known results for molecules:
molecule	target_or_test_system	label_value
CCOc1ccc(CN2CCCN(C)CC2)cc1	Microphthalmia-associated transcription factor (Homo sapiens)	TRUE
CCOc1ccc(CN2CCN(C(=O)c3cccc(Cl)c3)CC2)cc1	Microphthalmia-associated transcription factor (Homo sapiens)	TRUE
Cc1ccccc1NC(=O)NCCOc1cc(N2CCCC2)ncn1	Microphthalmia-associated transcription factor (Homo sapiens)	TRUE
O=C(Nc1cccc(NC(=O)c2ccc(S(=O)(=O)N3CCOCC3)cc2)c1)c1ccc(S(=O)(=O)N2CCOCC2)cc1	Microphthalmia-associated transcription factor (Homo sapiens)	FALSE

Lookup: Test whether the molecule O=C(Nc1cccc(Cl)c1N1CCN(Cc2ccco2)CC1)c1ccc(Br)o1 records inhibition of 20% or higher.
Found: FALSE

Lookup: Quick check, inhibition >= 20%? CS(=O)(=O)N(Cc1ccccc1)c1ccccc1C(=O)N1CCCCCC1
Found: FALSE

Lookup: In plain terms: is recorded inhibition at least 20% for COc1ccc(C(=O)NCCN2CCN(c3nc4c(C)c(C)ccc4s3)CC2)cc1 ?
Found: TRUE

Lookup: Please indicate if the recorded inhibition for CN(CCC(=O)O)Cc1cccc(Cl)c1 meets or exceeds 20%.
Found: TRUE

Lookup: Tell me whether inhibition is at least 20% here: COC(=O)c1sc(NC(=O)c2cccc(OC)c2OC)c(C#N)c1C
Found: FALSE

Lookup: Kindly determine if inhibition recorded for COc1ccc(S(=O)(=O)N2CCN(CCNC(=O)c3ccc(-c4ccccc4)cc3)CC2)cc1 is above or exactly 20%.
Found: FALSE

Lookup: Given the entry CC(Oc1cccc(Cl)c1)C(=O)Nc1ccccc1C(=O)N1CCN(Cc2ccccc2)CC1 (stereo not drawn) , answer whether its inhibition meets or surpasses 20%.
Found: FALSE

* * *

Recorded inhibition by entry
- target_or_test_system: Microphthalmia-associated transcription factor (Homo sapiens) (UniProt O75030)
- Sequence (O75030 whole entry, looked up): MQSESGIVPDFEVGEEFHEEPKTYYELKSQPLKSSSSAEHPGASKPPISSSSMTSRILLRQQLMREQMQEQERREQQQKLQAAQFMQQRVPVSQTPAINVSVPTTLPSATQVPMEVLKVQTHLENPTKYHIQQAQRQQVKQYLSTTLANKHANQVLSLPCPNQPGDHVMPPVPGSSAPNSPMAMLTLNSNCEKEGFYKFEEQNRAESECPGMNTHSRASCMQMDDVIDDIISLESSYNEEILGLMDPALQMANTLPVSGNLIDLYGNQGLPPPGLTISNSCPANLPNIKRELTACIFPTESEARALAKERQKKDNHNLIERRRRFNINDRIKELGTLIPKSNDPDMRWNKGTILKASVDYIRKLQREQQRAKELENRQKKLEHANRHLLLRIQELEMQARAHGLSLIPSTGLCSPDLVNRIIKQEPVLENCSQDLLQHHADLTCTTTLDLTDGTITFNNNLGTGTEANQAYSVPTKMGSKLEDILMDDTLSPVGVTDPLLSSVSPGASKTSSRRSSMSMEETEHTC
- assay_procedure: MITF inhibitors, primary screen, biochemical, AlphaScreen, human (AID 1259374);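 note: 0% = vehicle wells with protein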
- condition_notes: AlphaScreen MITF homodimerization, bead proximity signal; at 2.6 µM; active compounds read high
Out of some 650,000 compounds screened, about 5,900 (0.91%) were called active. The entries come from a sample that favours actives as a whole.

# example entries with known answers
compound	measured_quantity	observed_result
CC(=O)Nc1ccc(Oc2cc(NC(=O)c3cccc(F)c3)cc([N+](=O)[O-])c2)cc1	inhibition	9% (inactive)
CN1CC(CO)O/C1=C(C#N)\C=C1\Nc2ccccc2C1=O (centres undefined)	inhibition	21.7% (inactive)
CCOC(=O)c1cc(-c2ccc(O)c(OC)c2)no1	inhibition	-12.8% (inactive)

Below: the item to evaluate.
Lookup: What measured inhibition goes with CCN(Cc1ccccc1)C(=O)c1cc2c(=O)n3cccc(C)c3nc2n1C ?
Found: -25.5% (inactive)

* * *

- target_or_test_system: Microphthalmia-associated transcription factor (Homo sapiens)
- assay_procedure: MITF inhibitors, primary screen, biochemical, AlphaScreen, human (AID 1259374);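 note: 0% = vehicle wells with protein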
- condition_notes: AlphaScreen MITF homodimerization, bead proximity signal; at 2.6 µM
Among all 650,000 compounds or so, about 5,900 (0.91%) were called active. Cut-off read from the data, not from the text of the source: active = inhibition above about 50%; inactive = the rest. What follows is part of a selection rich in actives, with near analogues and random picks from the rest.
Please state which outcome applies, choosing from true (1) for active, false (0) for inactive

Sample answers from the record:
compound	label_value
COc1ccc(Br)cc1CN1CCN(CCOCCO)CC1	true (1)
O=S(=O)(NCC(c1ccc2c(c1)OCO2)N1CCOCC1)c1cccs1 (stereo unspecified)	false (0)
CC(NC(=O)Cn1c(C2CC2)nc2ccccc21)C1CC2CCC1C2 (stereo unspecified)	false (0)

Lookup: Test call for this compound, please: COc1ccc(-c2noc(=O)n2CC(=O)N(c2ccccc2)c2ccccc2)cc1
Found: false (0)

Lookup: // outcome(item) with item = COC(=O)Cn1cc(-c2ccc([N+](=O)[O-])cc2)nc1SCC(=O)NC(C)(C)C
Found: false (0)

Lookup: Recorded call for CC(Oc1ccc(Br)cc1)C(=O)N/N=C/c1ccccc1O (stereo unspecified) ?
Found: false (0)

Lookup: Please share the test call associated with OCCN1CCN(CC(O)COCCOc2ccc(Cl)cc2)CC1 (stereo unspecified) .
Found: false (0)

Lookup: Name the outcome recorded for CCCn1c(SCC(=O)NC2CCCCC2C)nnc1-c1cccnc1 (stereo unspecified) in the assay.
Found: false (0)

Lookup: # fetch the recorded call for COc1ccc(Br)cc1CN1CCN(C(C)=O)CC1 here
Found: false (0)

Lookup: Hello, I am checking results. What call was entered for COCCCn1c(SCC(=O)NC2CCCCC2)nnc1-c1ccccc1 ?
Found: false (0)

Lookup: Which outcome was assigned to CCOc1cccc(/C=N/NC(=S)NCCN2CCOCC2)c1O in this test?
Found: true (1)

Cited source: PubChem BioAssay AID1259374
